The measured values listed here are drawn from PubChem BioAssay (NCATS).

Test system: CP286
Method summary: qHTS profiling for inhibitors of Plasmodium falciparum proliferation (AID 504749); also: nearly all actives have a fitted effect of over 60% in size; also: potency is read from the fitted curve at half-maximal effect
Reported conditions: P. falciparum in erythrocytes, SYBR Green DNA, 72 h; series mostly up to 28.7 µM
Method: NIH National Institute of Allergy and Infectious Diseases [NIAID] NIH Chemical Genomics Center [NCGC] […] Because mature erythrocytes lack DNA, only Plasmodium-derived DNA is detected. NCGC Assay Protocol Summary: The SYBR Green viability assay was adapted from a method described previously (Plouffe et al., 2008). […] The following morning, fluorescence intensity at 485(14) nm excitation and 535(25) nm emission wavelengths was measured on an EnVision (Perkin Elmer) plate reader. […]
Records with an inconclusive call do not appear. Activity calls are given as the source filed them. Calls follow the shape of the dose curve; as a rule, active = well fitted inhibition curve with a large enough effect; inconclusive = small, poorly fitted or top-dose-only effect; inactive = flat fitted curve, though single readings scatter.
Measurement kind: Potency

compound=CN(C)C(=O)Oc1cccc([N+](C)(C)C)c1 test_target=CP286 measurement_kind=Potency reported_result=inactive
compound=CC1=NS(=O)(=O)c2cc(Cl)ccc2N1 test_target=CP286 measurement_kind=Potency reported_result=inactive
compound=O=C1CC2(CCCC2)CC(=O)N1CCCCN1CCN(c2ncccn2)CC1 test_target=CP286 measurement_kind=Potency reported_result=inactive
compound=CCO/C([O-])=N/c1c[n+](N2CCOCC2)no1 test_target=CP286 measurement_kind=Potency reported_result=inactive
compound=CCN1CCC[C@H]1CNC(=O)c1c(O)c(Cl)cc(Cl)c1OC test_target=CP286 measurement_kind=Potency reported_result=inactive
compound=C[N+](C)(C)CCCCCCCCCC[N+](C)(C)C test_target=CP286 measurement_kind=Potency reported_result="4.47 µM (active)"
compound="CCOC(=O)C1=C(C)NC(C)=C(C(=O)OC)C1c1cccc(Cl)c1Cl (stereo not drawn)" test_target=CP286 measurement_kind=Potency reported_result=inactive
compound=COC(=O)[C@H]1[C@H]2C[C@@H]3c4[nH]c5cc(OC)ccc5c4CCN3C[C@H]2C[C@@H](OC(=O)c2cc(OC)c(OC)c(OC)c2)[C@@H]1OC test_target=CP286 measurement_kind=Potency reported_result="11.2 µM (active)"
compound=CC(=O)OCC1=C(C(=O)O)N2C(=O)[C@@H](NC(=O)Cc3cccs3)[C@H]2SC1 test_target=CP286 measurement_kind=Potency reported_result=inactive
compound=CN(C)CC[C@@H](c1ccc(Br)cc1)c1ccccn1 test_target=CP286 measurement_kind=Potency reported_result=inactive
compound=CN1CCN(C2=Nc3ccccc3Oc3ccc(Cl)cc32)CC1 test_target=CP286 measurement_kind=Potency reported_result=inactive
compound=Brc1c(NC2=NCCN2)ccc2nccnc12 test_target=CP286 measurement_kind=Potency reported_result=inactive
compound=C[N+](C)(C)CCOC(=O)CCC(=O)OCC[N+](C)(C)C test_target=CP286 measurement_kind=Potency reported_result=inactive
compound=Cc1ccc(Cl)c(Nc2ccccc2C(=O)O)c1Cl test_target=CP286 measurement_kind=Potency reported_result=inactive
compound=CCN(CC)CCCN(c1ccccc1)C1Cc2ccccc2C1 test_target=CP286 measurement_kind=Potency reported_result="5.01 µM (active)"
compound=Cc1nnc(SCC2=C(C(=O)O)N3C(=O)[C@@H](NC(=O)Cn4cnnn4)[C@H]3SC2)s1 test_target=CP286 measurement_kind=Potency reported_result=inactive
compound=CC(C)(C)c1ccc(C(=O)CCCN2CCC(OC(c3ccccc3)c3ccccc3)CC2)cc1 test_target=CP286 measurement_kind=Potency reported_result="8.91 µM (active)"
compound=CCc1cccc(N(C)C(N)=Nc2cccc3ccccc23)c1 test_target=CP286 measurement_kind=Potency reported_result="8.91 µM (active)"
compound=NC(N)=N/N=C/c1c(Cl)cccc1Cl test_target=CP286 measurement_kind=Potency reported_result="11.2 µM (active)"
compound=FC(F)(F)c1ccccc1-n1ccnc1 test_target=CP286 measurement_kind=Potency reported_result=inactive
compound=NC(=O)c1ncn([C@@H]2O[C@H](CO)[C@@H](O)[C@H]2O)c1O test_target=CP286 measurement_kind=Potency reported_result=inactive
compound="CCn1ccnc1CC1COc2ccccc2O1 (stereo not drawn)" test_target=CP286 measurement_kind=Potency reported_result=inactive
compound="Nc1c2c(nc3ccccc13)CCCC2O (stereo not drawn)" test_target=CP286 measurement_kind=Potency reported_result=inactive
compound=c1cnc(N2CCN(Cc3ccc4c(c3)OCO4)CC2)nc1 test_target=CP286 measurement_kind=Potency reported_result=inactive
compound="CNC1(C)C2CCC(C2)C1(C)C (stereo not drawn)" test_target=CP286 measurement_kind=Potency reported_result=inactive
compound=C#CCN(C)CCCOc1ccc(Cl)cc1Cl test_target=CP286 measurement_kind=Potency reported_result=inactive
compound=OCCN1CCN(CCCN2c3ccccc3C=Cc3ccccc32)CC1 test_target=CP286 measurement_kind=Potency reported_result="7.08 µM (active)"
compound=CC(C)NNC(=O)c1ccncc1 test_target=CP286 measurement_kind=Potency reported_result=inactive
compound=OCCN1CCN(CC/C=C2/c3ccccc3Sc3ccc(C(F)(F)F)cc32)CC1 test_target=CP286 measurement_kind=Potency reported_result="8.91 µM (active)"
compound=CCN1CCc2nc(N)oc2CC1 test_target=CP286 measurement_kind=Potency reported_result=inactive
compound=C[C@H](CS)C(=O)N1CCC[C@H]1C(=O)O test_target=CP286 measurement_kind=Potency reported_result=inactive
compound=C[C@]12CCC(=O)C=C1CC[C@@H]1[C@@H]2CC[C@@]2(C)[C@H]1CC[C@]2(O)C(=O)CO test_target=CP286 measurement_kind=Potency reported_result=inactive
compound="OC(CCN1CCCCC1)(c1ccccc1)C1CCCCC1 (stereo not drawn)" test_target=CP286 measurement_kind=Potency reported_result=inactive
